target: Renin (Homo sapiens, UniProt P00797); assay: Inhibitory activity against purified human renal renin at pH 6.0
Sequence (P00797 whole entry): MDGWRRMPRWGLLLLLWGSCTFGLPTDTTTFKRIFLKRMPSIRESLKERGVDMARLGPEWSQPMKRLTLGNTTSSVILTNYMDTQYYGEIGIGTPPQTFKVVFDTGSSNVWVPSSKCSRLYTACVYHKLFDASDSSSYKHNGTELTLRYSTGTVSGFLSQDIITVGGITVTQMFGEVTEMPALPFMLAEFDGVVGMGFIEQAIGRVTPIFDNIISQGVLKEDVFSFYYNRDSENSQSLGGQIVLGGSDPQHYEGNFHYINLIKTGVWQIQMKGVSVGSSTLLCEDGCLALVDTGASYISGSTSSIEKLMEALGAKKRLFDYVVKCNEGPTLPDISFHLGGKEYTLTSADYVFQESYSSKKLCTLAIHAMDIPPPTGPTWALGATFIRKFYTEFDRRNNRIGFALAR
IC50: recorded values
Units required after the number.

In [3]: df
Out[3]:
                            chemical_smiles  observed
0  [N-]=[N+]=NC[C@@H](O)[C@@H](O)[C@@H](CC1CCCCC1)NC(=O)[C@H](Cc1c[nH]cn1)NC(=O)[C@H](Cc1ccccc1)NC(=O)C1CCOCC1    0.7 nM
1  COc1ccc(C[C@H](NC(=O)N2CCOCC2)C(=O)N[C@@H](Cc2c[nH]cn2)C(=O)N[C@H](CC2CCCCC2)[C@H](O)[C@H](O)CN=[N+]=[N-])cc1      4 nM

// switching to the query molecule
Query CC(C)C(=O)N[C@@H](Cc1ccccc1)C(=O)N[C@@H](Cc1c[nH]cn1)C(=O)N[C@H](CC1CCCCC1)[C@H](O)[C@H](O)CN=[N+]=[N-] yields IC50 of 0.55 nM
